# System: Trypanosoma cruzi
# Assay remarks: Antitrypanosomal activity against Trypanosoma cruzi IRHOD/VO/2008/SN3 metacyclic forms infected in african green monkey Vero cells assessed as inhibition of trypomastigotes level at IC25 level 0.5 to 10 days
# Format: functional
Each entry below lists one item and its recorded inhibition (INH) value.
Experimental endpoint: inhibition (INH) (%)

>>> df
                               input_smiles  experimental_endpoint  units_label  reported_measurement
0       O=C(Cn1ccnc1[N+](=O)[O-])NCc1ccccc1       inhibition (INH)            %                  41.6
1  c1ccc2c(NCCCn3ccnc3)nnc(NCCCn3ccnc3)c2c1       inhibition (INH)            %                  57.8
2             Clc1nnc(NCCCn2ccnc2)c2ccccc12       inhibition (INH)            %                  73.9
3  c1ccc2c(NCCc3c[nH]cn3)nnc(NCCc3c[nH]cn3)c2c1       inhibition (INH)            %                  63.8
4           Clc1nnc(NCCc2c[nH]cn2)c2ccccc12       inhibition (INH)            %                  85.1

---

# Assay remarks: Selectivity index, ratio of IC50 for african green monkey Vero cells to IC50 for Trypanosoma cruzi IRHOD/VO/2008/SN3 blood trypomastigotes
# Type: toxicity, cell-based
# Test settings: Vero cells versus Trypanosoma cruzi blood trypomastigotes, read-out: Ratio IC50
Experimental endpoint: selectivity ratio

                               input_smiles  reported_measurement
0  c1ccc2c(NCCc3cnc[nH]3)nnc(NCCc3cnc[nH]3)c2c1                  14.4
1           Clc1nnc(NCCc2c[nH]cn2)c2ccccc12                  46.5
2             Clc1nnc(NCCCn2ccnc2)c2ccccc12                  42.8
3  c1ccc2c(NCCCn3ccnc3)nnc(NCCCn3ccnc3)c2c1                  17.8

---

Each entry below lists one item and its recorded selectivity ratio value.
# Assay remarks: Selectivity index, ratio of IC50 for african green monkey Vero cells to IC50 for Trypanosoma cruzi IRHOD/VO/2008/SN3 epimastigotes
# Format: toxicity, cell-based
# Test settings: Vero cells versus Trypanosoma cruzi epimastigotes, read-out: Ratio IC50
Experimental endpoint: selectivity ratio

>>> df
                               input_smiles  experimental_endpoint  reported_measurement
0             Clc1nnc(NCCCn2ccnc2)c2ccccc12      selectivity ratio                  49.6
1  c1ccc2c(NCCCn3ccnc3)nnc(NCCCn3ccnc3)c2c1      selectivity ratio                  17.3
2           Clc1nnc(NCCc2c[nH]cn2)c2ccccc12      selectivity ratio                  49.1
3  c1ccc2c(NCCc3cnc[nH]3)nnc(NCCc3cnc[nH]3)c2c1      selectivity ratio                  24.9

---

Each entry below lists one item and its recorded selectivity ratio value.
# Assay remarks: Selectivity index, ratio of IC50 for african green monkey Vero cells to IC50 for Trypanosoma cruzi IRHOD/VO/2008/SN3 intracellular amastigotes
# Type: toxicity, cell-based
# Test settings: read-out: Ratio IC50
Experimental endpoint: selectivity ratio

>>> print(df.to_string())
                               input_smiles  experimental_endpoint  reported_measurement
0  c1ccc2c(NCCc3cnc[nH]3)nnc(NCCc3cnc[nH]3)c2c1      selectivity ratio                  17.9
1           Clc1nnc(NCCc2c[nH]cn2)c2ccccc12      selectivity ratio                  45.5
2             Clc1nnc(NCCCn2ccnc2)c2ccccc12      selectivity ratio                  49.1
3  c1ccc2c(NCCCn3ccnc3)nnc(NCCCn3ccnc3)c2c1      selectivity ratio                  18.2
